molecular target: Human immunodeficiency virus type 1 reverse transcriptase (Human immunodeficiency virus 1, UniProt Q72547, K103N); assay: Inhibition of HIV1 reverse transcriptase p66/p51 K103N mutant; details: read-out: IC50
pIC50: −log10 of the molar value.
Listing of entries alongside the reported pIC50.

| Compound | pIC50 |
| --- | --- |
| Cc1cc(C)cc(S(=O)(=O)c2c(C(=O)NC(C)CS(N)(=O)=O)[nH]c3ccc(Br)cc23)c1 (stereo unspecified) | 5.88 |
| Cc1cc(C)cc(S(=O)(=O)c2c(C(=O)NC(C)CS(N)(=O)=O)[nH]c3ccc(Cl)c(F)c23)c1 (stereo unspecified) | 8.52 |
| Cc1cc(C)cc(S(=O)(=O)c2c(C(=O)NC(C)CC(N)=O)[nH]c3ccc([N+](=O)[O-])cc23)c1 (stereo unspecified) | 5.96 |
| Cc1cc(C)cc(S(=O)(=O)c2c(C(=O)NCCS(N)(=O)=O)[nH]c3ccc([N+](=O)[O-])cc23)c1 | 6.10 |
| Cc1cc(C)cc(S(=O)(=O)c2c(C(=O)NCCC(N)=O)[nH]c3ccc(Br)cc23)c1 | 6.38 |
| Cc1cc(C)cc(S(=O)(=O)c2c(C(=O)NC(C)CS(N)(=O)=O)[nH]c3ccc(Cl)cc23)c1 (stereo unspecified) | 6.63 |

* * *

test system: Influenza B virus; experiment: Antiviral activity against influenza B virus in MDCK cells assessed as reduction of virus-induced cytopathicity by MTS method; assay type: functional, organism-based
pEC50: −log10 of the molar value.

| Compound | pEC50 |
| --- | --- |
| Cc1cc(C)cc(S(=O)(=O)c2c(C(=O)NC(C)CC(N)=O)[nH]c3ccc(Br)cc23)c1 (stereo not drawn) | < 5.40 |
| Cc1cc(C)cc(S(=O)(=O)c2c(C(=O)NCCC(N)=O)[nH]c3ccc(Cl)cc23)c1 | < 5.40 |
| Cc1cc(C)cc(S(=O)(=O)c2c(C(=O)NCCC(N)=O)[nH]c3ccc(Cl)c(F)c23)c1 | < 4.70 |
| Cc1cc(C)cc(S(=O)(=O)c2c(C(=O)NCC(N)=O)[nH]c3ccc([N+](=O)[O-])cc23)c1 | < 4.70 |
| Cc1cc(C)cc(S(=O)(=O)c2c(C(=O)NCC(N)=O)[nH]c3ccc(Br)cc23)c1 | < 5.40 |
| Cc1cc(C)cc(S(=O)(=O)c2c(C(=O)NC(C)C(N)=O)[nH]c3ccc(Cl)cc23)c1 (stereo not drawn) | < 5.40 |
| CC(N)C12CC3CC(CC(C3)C1)C2 (stereo not drawn) | < 4.00 |
| Cc1cc(C)cc(S(=O)(=O)c2c(C(=O)NC(C)C(N)=O)[nH]c3ccc(Cl)c(F)c23)c1 (stereo not drawn) | < 5.40 |
| Cc1cc(C)cc(S(=O)(=O)c2c(C(=O)NC(C)C(N)=O)[nH]c3ccc(Br)cc23)c1 (stereo not drawn) | < 3.10 |
| Cc1cc(C)cc(S(=O)(=O)c2c(C(=O)NC(C)CC(N)=O)[nH]c3ccc([N+](=O)[O-])cc23)c1 (stereo not drawn) | < 5.40 |
| Cc1cc(C)cc(S(=O)(=O)c2c(C(=O)NCCS(N)(=O)=O)[nH]c3ccc(Cl)cc23)c1 | < 5.40 |
| Cc1cc(C)cc(S(=O)(=O)c2c(C(=O)NCC(N)=O)[nH]c3ccc(Cl)cc23)c1 | < 5.40 |
| Cc1cc(C)cc(S(=O)(=O)c2c(C(=O)NCCC(N)=O)[nH]c3ccc(Br)cc23)c1 | < 5.40 |
| Cc1cc(C)cc(S(=O)(=O)c2c(C(N)=O)[nH]c3ccc(Cl)cc23)c1 | < 4.00 |
| Cc1cc(C)cc(S(=O)(=O)c2c(C(=O)NC(C)CS(N)(=O)=O)[nH]c3ccc(Cl)cc23)c1 (stereo not drawn) | < 5.40 |
| Cc1cc(C)cc(S(=O)(=O)c2c(C(=O)NCCS(N)(=O)=O)[nH]c3ccc(Br)cc23)c1 | < 3.10 |
| NC12CC3CC(CC(C3)C1)C2 | < 4.00 |
| Cc1cc(C)cc(S(=O)(=O)c2c(C(=O)NC(C)CC(N)=O)[nH]c3ccc(Cl)cc23)c1 (stereo not drawn) | < 5.40 |

* * *

Listing of entries alongside the reported MCC at 72 h.
assay: Cytotoxicity against human HeLa cells assessed as drug level causing microscopically detectable alteration of normal cell morphology after 3 days; assay type: cell-based

| Molecule | U | Relation Symbol | MCC at 72 h |
| --- | --- | --- | --- |
| Cc1cc(C)cc(S(=O)(=O)c2c(C(=O)NC(C)CC(N)=O)[nH]c3ccc(Cl)c(F)c23)c1 (centres undefined) | µM | = | 100 |
| Cc1cc(C)cc(S(=O)(=O)c2c(C(=O)NC(C)C(N)=O)[nH]c3ccc(Cl)cc23)c1 (centres undefined) | µM | = | 100 |
| Nc1ncnc2c1ncn2C[C@H](O)CO [(S)-DHPA] | µM | > | 250 |
| Cc1cc(C)cc(S(=O)(=O)c2c(C(=O)NC(C)C(N)=O)[nH]c3ccc([N+](=O)[O-])cc23)c1 (centres undefined) | µM | > | 100 |
| Cc1cc(C)cc(S(=O)(=O)c2c(C(=O)NCCS(N)(=O)=O)[nH]c3ccc(Cl)cc23)c1 | µM | = | 20 |
| Cc1cc(C)cc(S(=O)(=O)c2c(C(=O)NCC(N)=O)[nH]c3ccc(Cl)c(F)c23)c1 | µM | = | 100 |
| Cc1cc(C)cc(S(=O)(=O)c2c(C(=O)NC(C)CS(N)(=O)=O)[nH]c3ccc(Br)cc23)c1 (centres undefined) | µM | = | 20 |
| NC(=O)c1ncn([C@@H]2O[C@H](CO)[C@@H](O)[C@H]2O)n1 [RIBAVIRIN] | µM | > | 250 |
| Cc1cc(C)cc(S(=O)(=O)c2c(C(=O)NCCC(N)=O)[nH]c3ccc([N+](=O)[O-])cc23)c1 | µM | > | 100 |
| Cc1cc(C)cc(S(=O)(=O)c2c(C(N)=O)[nH]c3ccc(Cl)cc23)c1 | µM | > | 100 |
| Cc1cc(C)cc(S(=O)(=O)c2c(C(=O)NNC(C)C)[nH]c3ccc(Cl)cc23)c1 | µM | > | 100 |
| Cc1cc(C)cc(S(=O)(=O)c2c(C(=O)NCCS(N)(=O)=O)[nH]c3ccc(Cl)c(F)c23)c1 | µM | = | 100 |
| Cc1cc(C)cc(S(=O)(=O)c2c(C(=O)NCCC(N)=O)[nH]c3ccc(Br)cc23)c1 | µM | ≥ | 20 |
| Cc1cc(C)cc(S(=O)(=O)c2c(C(=O)NCCS(N)(=O)=O)[nH]c3ccc([N+](=O)[O-])cc23)c1 | µM | ≥ | 100 |
| Cc1cc(C)cc(S(=O)(=O)c2c(C(=O)NC(C)CC(N)=O)[nH]c3ccc(Cl)cc23)c1 (centres undefined) | µM | ≥ | 20 |
| Cc1cc(C)cc(S(=O)(=O)c2c(C(=O)NCC(N)=O)[nH]c3ccc(Cl)cc23)c1 | µM | = | 100 |
| Cc1cc(C)cc(S(=O)(=O)c2c(C(=O)NCC(N)=O)[nH]c3ccc([N+](=O)[O-])cc23)c1 | µM | > | 100 |
| Cc1cc(C)cc(S(=O)(=O)c2c(C(=O)NCCS(N)(=O)=O)[nH]c3ccc(Br)cc23)c1 | µM | = | 20 |
| Cc1cc(C)cc(S(=O)(=O)c2c(C(=O)NC(C)CS(N)(=O)=O)[nH]c3ccc([N+](=O)[O-])cc23)c1 (centres undefined) | µM | ≥ | 20 |
| Cc1cc(C)cc(S(=O)(=O)c2c(C(=O)NC(C)CC(N)=O)[nH]c3ccc(Br)cc23)c1 (centres undefined) | µM | ≥ | 20 |
| Cc1cc(C)cc(S(=O)(=O)c2c(C(=O)NC(C)CS(N)(=O)=O)[nH]c3ccc(Cl)cc23)c1 (centres undefined) | µM | = | 100 |
| Cc1cc(C)cc(S(=O)(=O)c2c(C(=O)NC(C)C(N)=O)[nH]c3ccc(Br)cc23)c1 (centres undefined) | µM | = | 20 |
| Cc1cc(C)cc(S(=O)(=O)c2c(C(N)=O)[nH]c3ccc(Cl)c(F)c23)c1 | µM | > | 100 |
| Cc1cc(C)cc(S(=O)(=O)c2c(C(=O)NCCC(N)=O)[nH]c3ccc(Cl)cc23)c1 | µM | = | 20 |
| Cc1cc(C)cc(S(=O)(=O)c2c(C(=O)NCC(N)=O)[nH]c3ccc(Br)cc23)c1 | µM | = | 100 |
| Cc1cc(C)cc(S(=O)(=O)c2c(C(=O)NC(C)CC(N)=O)[nH]c3ccc([N+](=O)[O-])cc23)c1 (centres undefined) | µM | = | 100 |
| Cc1cc(C)cc(S(=O)(=O)c2c(C(=O)NC(C)CS(N)(=O)=O)[nH]c3ccc(Cl)c(F)c23)c1 (centres undefined) | µM | = | 20 |
| Cc1cc(C)cc(S(=O)(=O)c2c(C(=O)NC(C)C(N)=O)[nH]c3ccc(Cl)c(F)c23)c1 (centres undefined) | µM | = | 20 |
| Cc1cc(C)cc(S(=O)(=O)c2c(C(=O)NCCC(N)=O)[nH]c3ccc(Cl)c(F)c23)c1 | µM | = | 100 |
